Target: T1, human plasma kallikrein (human, UniProt P03952 20-390; P03952 391-638)
T1 construct: also called pKal; human pKal
T1 sequence (P03952 20-390, chain 1 of 2): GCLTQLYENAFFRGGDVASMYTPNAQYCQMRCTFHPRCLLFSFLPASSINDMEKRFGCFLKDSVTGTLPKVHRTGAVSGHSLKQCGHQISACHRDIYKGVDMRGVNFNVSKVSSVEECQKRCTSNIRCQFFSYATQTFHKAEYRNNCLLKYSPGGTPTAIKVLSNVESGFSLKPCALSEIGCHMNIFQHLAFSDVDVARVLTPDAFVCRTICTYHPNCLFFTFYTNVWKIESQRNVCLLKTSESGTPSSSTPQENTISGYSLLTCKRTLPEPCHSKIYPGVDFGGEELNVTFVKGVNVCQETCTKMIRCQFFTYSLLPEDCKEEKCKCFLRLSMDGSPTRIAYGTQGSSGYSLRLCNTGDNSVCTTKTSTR
T1 sequence (P03952 391-638, chain 2 of 2): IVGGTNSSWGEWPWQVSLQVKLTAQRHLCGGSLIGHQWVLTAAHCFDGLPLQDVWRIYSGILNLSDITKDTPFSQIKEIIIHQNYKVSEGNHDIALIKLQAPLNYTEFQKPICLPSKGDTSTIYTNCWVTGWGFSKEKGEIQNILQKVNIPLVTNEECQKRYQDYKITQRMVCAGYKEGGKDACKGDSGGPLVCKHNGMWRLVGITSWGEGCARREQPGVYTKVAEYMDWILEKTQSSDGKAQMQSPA
Assay: apparent Ki (Ki,app), inhibition of human pKal activity
QUANTITY: pKi
In textbook form, pKi equals minus log to base ten of the concentration in mol/L.

Q. Could you share which pKi value was measured for M29-E09 (antibody, V domains shown) VH: EVQLLESGGGLVQPGGSLRLSCAASGFTFSWYEMGWVRQAPGKGLEWVSSIYSSGGGTMYADSVKGRFTISRDNSKNTLYLQMNSLRAEDTAVYYCARNPQYSGYDRSLSDGAFDIWGQGTMVTVSS VL: QYELTQPPSVSVSPSQTATITCSGDNLGNKYNSWYQQKPGQSPLLVIYQDTKRPSAIPERFSGSNSGNTAILTISGTQAMDEADYYCQAWDGNVVFGGGTKLTVL ?
A. 7.96
